pIC50 values for the compounds below.
- System Tested: KRAS (G12C)::SOS1 (Homo sapiens (Human), UniProt P01116, C118S/C51S/C80L/G12C)
- Sequence (P01116 other isoform, or with tags, fused parts or gaps G12C/C51S/C80L/C118S): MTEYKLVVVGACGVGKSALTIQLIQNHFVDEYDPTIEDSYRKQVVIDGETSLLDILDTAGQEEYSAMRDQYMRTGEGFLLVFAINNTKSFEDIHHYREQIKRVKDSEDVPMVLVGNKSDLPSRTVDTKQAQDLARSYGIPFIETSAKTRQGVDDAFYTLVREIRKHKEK
- Experiment: KRAS::SOS1 AlphaScreen binding assay, KRAS G12C
Schema: pIC50 number; meaning minus log10 of the concentration expressed in molar units.

These recorded examples may help you get a feel for the data.
C[C@H](Oc1cc(-c2cnn(C)n2)nc(-c2noc3c2CCC[C@@]32CCCc3sc(N)c(C#N)c32)n1)[C@@H]1CCCN1C :: 8.70
C[C@H](Oc1nc(-c2onc3c2CCC[C@@]32CCCc3sc(N)c(C#N)c32)cc(N2CCNC3(CC3)C2)n1)[C@@H]1CCCN1C :: 7.35
C[C@H](Oc1cc(-n2ccc(C(=O)O)n2)nc(-c2noc3c2CCC[C@@]32CCCc3sc(N)c(C#N)c32)n1)[C@@H]1CCCN1C :: 8.70
CO[C@H]1CCN(C)[C@@H]1[C@H](C)Oc1cc(N2CCNC3(CC3)C2)nc(-c2noc3c2CCC[C@@]32CCCc3sc(N)c(C#N)c32)n1 :: 8.70

Lookup result for `C[C@H](Oc1cc(-n2ccc(-c3cn([C@@H]4CCOC4)nn3)n2)nc(-c2noc3c2CCC[C@@]32CCCc3sc(N)c(C#N)c32)n1)[C@@H]1CCCN1C` ; measured pIC50: 8.70

Lookup result for `C[C@H](O)Cn1ncc(-c2cc(O[C@@H](C)[C@@H]3CCCN3C)nc(-c3noc4c3CCC[C@@]43CCCc4sc(N)c(C#N)c43)n2)n1` ; measured pIC50: 8.70

----------
- Tested on: KRAS G12V-dependent Ba/F3 cells
- Experiment: Ba/F3 proliferation assay, KRAS G12V;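 further: proliferation IC50 in KRAS G12V-dependent Ba/F3 cells read by AlamarBlue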
- Type: cell-based
- Details: Mus musculus, BaF3, 72 h, AlamarBlue
pIC50 values for the molecules below.
Schema: pIC50 number; meaning minus log10 of the concentration expressed in molar units.

These recorded examples may help you get a feel for the data.
C[C@H](Oc1cc(-n2cc3c(n2)CNC3)nc(-c2noc3c2CCC[C@@]32CCCc3sc(N)c(C#N)c32)n1)[C@@H]1C[C@@H](F)CN1C [II-154] :: 6.87
C[C@H](Oc1cc(-n2cc(Cn3cncn3)nn2)nc(-c2noc3c2CCC[C@@]32CCCc3sc(N)c(C#N)c32)n1)[C@@H]1CCCN1C [II-124] :: 7.92
C[C@H](Oc1cc(-c2cnn(C)c2)nc(-c2noc3c2CCC[C@@]32CCCc3sc(N)c(C#N)c32)n1)[C@@H]1CCCN1C [II-74] :: 7.96
COCCNC(=O)c1ccn(-c2cc(O[C@@H](C)[C@@H]3[C@@H](OC)CCN3C)nc(-c3noc4c3CCC[C@@]43CCCc4sc(N)c(C#N)c43)n2)n1 [II-200] :: 9.00
C[C@H](Oc1cc(-n2cnc(C(=O)N(C)C)c2)nc(-c2noc3c2CCC[C@@]32CCCc3sc(N)c(C#N)c32)n1)[C@@H]1CCCN1C [II-126] :: 7.59

With those in mind, consider the next molecule.
Lookup result for C[C@H](Oc1cc(-n2ccc(-c3cn(CC4(C)COC4)nn3)n2)nc(-c2noc3c2CCC[C@@]32CCCc3sc(N)c(C#N)c32)n1)[C@@H]1CCCN1C [II-213] ; measured pIC50: 8.22

----------
- Experiment: Solubility measurement (DMSO solution method), McIlvaine buffer pH 4.5 or 6.8
- Type: physicochemical
- Details: aqueous buffer, kinetic from dmso stock; McIlvaine buffer pH 4.5; DMSO stock diluted to 250 μM; 24 h shaking at ambient temperature; read-out: solubility pH 4.5
Property: solubility at 24 h

CNC(=O)c1cn(-c2cc(O[C@@H](C)[C@@H]3CCCN3C)nc(-c3noc4c3CCC[C@@]43CCCc4sc(N)c(C#N)c43)n2)nn1 [II-122] :: 122 µg/mL
C[C@H](Oc1cc(-c2cn(C)nn2)nc(-c2onc3c2CCC[C@@]32CCCc3sc(N)c(C#N)c32)n1)[C@@H]1CCCN1C [I-16] :: > 118 µg/mL

With those in mind, consider the next compound.
Lookup result for C[C@H](Oc1cc(N2CC[C@H](N(C)C)C2)nc(-c2onc3c2CCC[C@@]32CCCc3sc(N)c(C#N)c32)n1)[C@@H]1CCCN1C [I-11] ; measured solubility at 24 h: > 141 µg/mL

----------
- Experiment: Solubility measurement (DMSO solution method), McIlvaine buffer pH 4.5 or 6.8
- Assay type: physicochemical
- Details: aqueous buffer, kinetic from dmso stock; McIlvaine buffer pH 6.8; DMSO stock diluted to 250 μM; 24 h shaking at ambient temperature; read-out: solubility pH 6.8
solubility at 24 h values for the molecules below.
The reply should contain only the number, in mg/mL.

These recorded examples may help you get a feel for the data.
C[C@H](Oc1cc(-c2ccn(C3COC3)n2)nc(-c2noc3c2CCC[C@@]32CCCc3sc(N)c(C#N)c32)n1)[C@@H]1CCCN1C :: 0.061
C[C@H](Oc1cc(N2CC[C@H](N(C)C)C2)nc(-c2noc3c2CCC[C@@]32CCCc3sc(N)c(C#N)c32)n1)[C@@H]1CCCN1C :: 0.114
C[C@H](Oc1cc(-n2ccc(C(=O)NC3(C)COC3)n2)nc(-c2noc3c2CCC[C@@]32CCCc3sc(N)c(C#N)c32)n1)[C@@H]1CCCN1C :: 0.062

Lookup result for `C[C@H](Oc1cc([C@@H]2CCOC2)nc(-c2onc3c2CCC[C@@]32CCCc3sc(N)c(C#N)c32)n1)[C@@H]1CCCN1C` ; measured solubility at 24 h: 0.104

Lookup result for `C[C@H](Oc1cc(-n2ccc(C(=O)N[C@@H]3CCOC3)n2)nc(-c2onc3c2CCC[C@@]32CCCc3sc(N)c(C#N)c32)n1)[C@@H]1CCCN1C` ; measured solubility at 24 h: 0.097

Lookup result for `C[C@H](Oc1cc(N2CCNC2=O)nc(-c2noc3c2CCC[C@@]32CCCc3sc(N)c(C#N)c32)n1)[C@@H]1CCCN1C` ; measured solubility at 24 h: 0.008

Lookup result for `C[C@H](Oc1cc(N2CC[C@H](N(C)C)C2)nc(-c2onc3c2CCC[C@@]32CCCc3sc(N)c(C#N)c32)n1)[C@@H]1CCCN1C` ; measured solubility at 24 h: 0.112

Lookup result for `Cc1cn(-c2cc(O[C@@H](C)[C@@H]3CCCN3C)nc(-c3noc4c3CCC[C@@]43CCCc4sc(N)c(C#N)c43)n2)nn1` ; measured solubility at 24 h: 0.013

Lookup result for `C[C@H](Oc1cc(-c2ccccn2)nc(-c2noc3c2CCC[C@@]32CCCc3sc(N)c(C#N)c32)n1)[C@@H]1CCCN1C` ; measured solubility at 24 h: 0.003

Lookup result for C[C@H](Oc1cc(N2CCC(C#N)C2)nc(-c2noc3c2CCC[C@@]32CCCc3sc(N)c(C#N)c32)n1)[C@@H]1CCCN1C (stereo partly shown) ; measured solubility at 24 h: 0.084

----------
- Tested on: KRAS G12C-dependent Ba/F3 cells
- Experiment: Ba/F3 proliferation assay, KRAS G12C
- Format: cell-based
- Details: Mus musculus, BaF3, 72 h, AlamarBlue
Property: IC50 (µM)
The reply should contain only the number, in µM.

These recorded examples may help you get a feel for the data.
CC(C)[C@@H]1CN(c2cc(O[C@@H](C)[C@@H]3CCCN3C)nc(-c3noc4c3CCC[C@@]43CCCc4sc(N)c(C#N)c43)n2)CCN1 :: 0.386
C[C@@H]1CN(c2cc(O[C@@H](C)[C@@H]3CCCN3C)nc(-c3noc4c3CCC[C@@]43CCCc4sc(N)c(C#N)c43)n2)CCN1 :: 0.91

With those in mind, consider the next molecule.
Lookup result for `C[C@H](Oc1cc(N2CCNC3(COC3)C2)nc(-c2noc3c2CCC[C@@]32CCCc3sc(N)c(C#N)c32)n1)[C@@H]1CCCN1C` ; measured IC50: 0.069

----------
- Tested on: AsPC-1 cells
- Experiment: AsPC-1 CTG proliferation assay (120 h) (pancreatic cancer, G12D)
- Format: cell-based
- Details: Homo sapiens, ASPC1
Property: pIC50
Schema: pIC50 number; meaning minus log10 of the concentration expressed in molar units.

Lookup result for C[C@H](Oc1cc(N2CCOC2=O)nc(-c2noc3c2CCC[C@@]32CCCc3sc(N)c(C#N)c32)n1)[C@@H]1CCCN1C [II-143] ; measured pIC50: 5.82

Lookup result for CO[C@@H]1C[C@@H]([C@H](C)Oc2cc(N3CCNC4(CC4)C3)nc(-c3noc4c3CCC[C@@]43CCCc4sc(N)c(C#N)c43)n2)N(C)C1 [II-187] ; measured pIC50: 7.52

Lookup result for COC(=O)c1ccc(-c2cc(O[C@@H](C)[C@@H]3CCCN3C)nc(-c3noc4c3CCC[C@@]43CCCc4sc(N)c(C#N)c43)n2)o1 [II-114] ; measured pIC50: 5.64

Lookup result for Cc1ccc(-c2cc(O[C@@H](C)[C@@H]3CCCN3C)nc(-c3onc4c3CCC[C@@]43CCCc4sc(N)c(C#N)c43)n2)cn1 [I-28] ; measured pIC50: 5.47

Lookup result for C[C@H](Oc1cc(N2CC[C@H](N(C)C)C2)nc(-c2onc3c2CCC[C@@]32CCCc3sc(N)c(C#N)c32)n1)[C@@H]1CCCN1C [I-11] ; measured pIC50: 6.25

Lookup result for C[C@H](Oc1cc([C@@H]2CCN(C)C2)nc(-c2noc3c2CCC[C@@]32CCCc3sc(N)c(C#N)c32)n1)[C@@H]1CCCN1C [II-37] ; measured pIC50: 5.84

Lookup result for C[C@H](Oc1cc(C2=CCOCC2)nc(-c2noc3c2CCC[C@@]32CCCc3sc(N)c(C#N)c32)n1)[C@@H]1CCCN1C [II-67] ; measured pIC50: 5.55

Lookup result for C[C@H](Oc1cc([C@@H]2CCOC2)nc(-c2noc3c2CCC[C@@]32CCCc3sc(N)c(C#N)c32)n1)[C@@H]1CCCN1C [II-94] ; measured pIC50: 6.01

Lookup result for C[C@H](Oc1cc(N2Cc3cnn(C)c3C2)nc(-c2noc3c2CCC[C@@]32CCCc3sc(N)c(C#N)c32)n1)[C@@H]1CCCN1C [II-63] ; measured pIC50: 5.48

Lookup result for C[C@H](NC(=O)c1ccn(-c2cc(O[C@@H](C)[C@@H]3CCCN3C)nc(-c3onc4c3CCC[C@@]43CCCc4sc(N)c(C#N)c43)n2)n1)c1ccccn1 [I-59] ; measured pIC50: 6.35

Lookup result for C[C@H](Oc1nc(-c2noc3c2CCC[C@@]32CCCc3sc(N)c(C#N)c32)cc(N2C[C@H](C)N[C@@H](C)C2)n1)[C@@H]1CCCN1C [II-46] ; measured pIC50: 5.56
